Data provenance is patent US20050014788A1.

target entity: recombinant human CCR5 receptor (Homo sapiens, UniProt P51681)
Sequence (P51681 whole entry): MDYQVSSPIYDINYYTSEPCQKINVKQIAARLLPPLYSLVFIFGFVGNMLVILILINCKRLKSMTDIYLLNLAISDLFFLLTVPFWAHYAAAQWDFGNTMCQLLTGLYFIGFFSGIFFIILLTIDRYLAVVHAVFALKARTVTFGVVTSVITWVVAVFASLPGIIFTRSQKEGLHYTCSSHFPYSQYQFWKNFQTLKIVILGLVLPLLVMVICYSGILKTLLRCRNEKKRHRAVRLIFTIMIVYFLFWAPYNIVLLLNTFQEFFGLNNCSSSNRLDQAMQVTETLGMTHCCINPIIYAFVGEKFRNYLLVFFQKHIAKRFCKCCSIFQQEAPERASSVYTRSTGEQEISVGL
test name: MIP-1α radioligand binding assay (scintillation proximity), CHO cell membranes
reported conditions: negative log (base 10) of IC50 (M); displacement of 0.1 nM iodinated MIP-1α; CHO membranes with recombinant human CCR5; average if tested more than once; read-out: Pic50 (converted)
metric: IC50 (M)

# molecule, IC50 [M]
data = [
    ("CCN(C(=O)Cc1ccc(S(C)(=O)=O)cc1)C1CCN(CCC(c2ccccc2)c2ccc(NC(=O)NC(C)C)cc2)CC1 (stereo not drawn)", "1.32e-08"),
]

(a) CCN(C(=O)Cc1ccc(S(C)(=O)=O)cc1)C1CCN(CCC(c2ccc(NC(C)=O)cc2)c2cccc(F)c2)CC1 (stereo not drawn)
(b) CCN(C(=O)Cc1ccc(S(C)(=O)=O)cc1)C1CCN(CCC(c2ccccc2)c2ccc(SC)cc2)CC1 (stereo not drawn)
Request: Identify the entry with the larger IC50. Options: a and b Pick one and reply with its label.
Response: b
